Just for reference, the RNAGym collection of RNA variant scans (doi:10.1073/pnas.2313332121) is where these values come from.

B1: TPR t1 (parent)
chain: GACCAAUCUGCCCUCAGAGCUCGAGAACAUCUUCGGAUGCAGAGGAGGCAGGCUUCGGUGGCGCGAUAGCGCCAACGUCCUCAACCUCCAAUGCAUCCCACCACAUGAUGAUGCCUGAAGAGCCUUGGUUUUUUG

# Variants of: B1
# assayDetails: polymerase ribozyme fitness, log enrichment relative to wild type (log ratio); higher = more active; in vitro selection for triplet polymerase activity
Would you mind telling me the reported polymerase ribozyme fitness (log ratio) of each entry?
// return just the number, without any unit appended

// query polymerase ribozyme fitness (log ratio) value for entry C11U C15U
-2.2

Try this variant next: G44U A46U A111C
-3.04

Next entry: C8A C15G C64U C82G C89A U109A
-6.66

Likewise for U21C C64A C99G U112G ?
-8.45

Another variant to look at: G45U C53U A105U
-3.69

And for C12G A41C ?
-0.0245

Also, A26G C53A U81G please.
-3.49

Would you mind doing C56A C80U G120C C123G as well?
-0.961

Let us now turn to U38A C102U
-4.16

Let us now turn to A6G G25A C34U G42C G69C U87C C114A C124U
-6.61

Proceed to A43C G45A A50G G113U G120C
-1.89

What about this variant? A6G G71A C101A
-3.04

Field entry: G51C G61U A74C C114A G117A
-7.43

Next: C12A A100C A121C
1.43

Same read-out for A26U C70U ?
-4.13

Query A24C G120A next
-4.02

Can you handle A5C A37U G127U next?
-2.11

Try this variant next: G44U C70U C72U C79U G122A
-2.61

Moving on to G61U C72U
-0.409

Next up: C13G A16U C82A C89G
-4.33

Here is the next variant: A6U C53G
-0.289

Then this variant: G52U C73U U129C
-1.39

How about this variant: A29G A41C A119U U133G
-2.94

Similarly, C11U G19A G61A U131G ?
-3.33

Now the variant U21A U59G U81G C82G C115U
-4.27

Here is the next variant: C11U A66C C94U
-1.69

Now try G63U A121C .
0.0306

And for C15A C53A C72G A103C G113A G117A ?
-6.79

// repeat for U9G A18C C40G A91C G93C C94A A105G and report
-5.58

Entry C13G G52A C72G C85A please
-4.46

Cool, now G10C C12A A18C G42U G71A G117U G122U U130G
-3.23

How about C49A A68G A90U ?
-6.08

Same lookup for A50U G110C , please.
-4.17

How about C56G G93U ?
-2.19

Repeat with G35C U59G C76A C98A
-5.8

Follow-up entry: G63A G127U
-1.36

// repeat for C12U G63C C82U A103C and report
-6.59

Repeat for the following variant: C13G G51C G69U U78G
-2.43

Could you do the same for C56U A121U , please?
1.6

Entry C20U C34U please
-5.22

Here is the next variant: G48A C64A
-6.92

And then G52U G60A G69A C82A C102U C123G , what is it?
-6.73
